Assay explanation: Antihepatotoxic effect: duration of hexobarbital sleep of the rat after liver damage by CCl4
Settings: rat, in vivo, TQ LD50/ED25, antihepatotoxic effect, LD50 mouse i.p. / ED25 rat p.o.; Table XI
Procedure: The compounds to be tested are administered 1 hour prior to the administration of CCl4 orally in a liquid volume of 10 ml/kg. The antihepatotoxic effect of the compounds to be tested (sodium salts in aqueous solution) is determined by the reduction of the prolongation of sleeping period caused by the CCl4 liver cell damage in the groups treated, as compared with the prolongation of the sleeping period of the CCl4 control group (=100%). […]
Reported selectivity ratio values for the following molecules.
Would you mind answering with just the numeric figure?

# count of solved cases: 2
O=C(O)CCCN(C(=O)c1ccc(Cl)cc1Cl)c1cccc2ccccc12 [Serial No. 41]: 24
O=C(O)CCCN(C(=O)c1ccc(Cl)c(Cl)c1)c1ccc2c(c1)CCC2 [compound 53]: 18

Query: What value of selectivity ratio has been reported for the following molecule? COc1ccc2cccc(N(CCCC(=O)O)C(=O)c3ccc(Cl)cc3)c2c1 [Serial No. 46]
Reply: 17.1
